Cited source for all entries: patent US20210330611A1

tested on: fibrin-induced microglia activation; test: Image-based assay of fibrin-induced microglia activation (HTS and dose response); format: cell-based, rat; details: Rattus norvegicus, Microglia, primary microglia HTS, fibrin stimulation, cell size >800 μm2 as marker of activation; read-out: Fibrin % inhibition
Where a name gives a salt, the structure may show the parent alone.
Label condition not met if inhibition at 10 µM falls below -10%; label condition met in every other case.

compound: CC(=O)c1ccc2c(c1)N(CCCN1CCC(CCO)CC1)c1ccccc1S2
group: condition not met
--
compound: CCOC(=O)[C@H](CCc1ccccc1)N[C@@H](C)C(=O)N1Cc2ccccc2C[C@H]1C(=O)O
group: condition not met
--
compound: CC(C(=O)O)c1ccc2c(c1)Cc1cccnc1O2 (stereo not drawn)
group: condition not met
--
compound: O=C1CC[C@@H](C(=O)O)N1
group: condition not met
--
compound: CCCN1C[C@H](CSC)C[C@@H]2c3cccc4[nH]cc(c34)C[C@H]21 [Pergolide]
group: condition not met
--
compound: CO[C@H]1/C=C/O[C@@]2(C)Oc3c(C)c(O)c4c(O)c(c(/C=N/N5CCN(C6CCCC6)CC5)c(O)c4c3C2=O)NC(=O)/C(C)=C\C=C\[C@H](C)[C@H](O)[C@@H](C)[C@@H](O)[C@@H](C)[C@H](OC(C)=O)[C@@H]1C
group: condition not met
--
compound: CN[C@@H]1[C@@H](O)[C@@H](O[C@@H]2[C@@H](O)[C@H](O[C@H]3OC(CN)=CC[C@H]3N)[C@@H](N)C[C@H]2N)OC[C@]1(C)O [Sisomicin Sulfate]
group: condition not met
--
compound: CC(COc1ccccc1)N(CCCl)Cc1ccccc1 (stereo not drawn)
group: condition met
--
compound: CCOC(=O)[C@H](CCc1ccccc1)N[C@@H](C)C(=O)N1[C@H](C(=O)O)C[C@@H]2CCC[C@@H]21
group: condition met
